The entries below are paired with their reported binding activity, % of wild type.
Tgt: PD-1 (UniProt Q15116 25-167, limits assumed)
Sequence (Q15116 25-167 limits assumed): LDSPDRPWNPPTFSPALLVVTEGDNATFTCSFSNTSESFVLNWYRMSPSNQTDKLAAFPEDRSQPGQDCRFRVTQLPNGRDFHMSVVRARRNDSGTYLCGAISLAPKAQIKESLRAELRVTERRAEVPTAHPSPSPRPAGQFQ
Assay Text: ELISA; S13 on the Cys
Numeric answer only, unit % assumed.

binder="anti-PD-1 antibody 2 HC Gly8Cys (antibody, human IgG4 S228P, kappa, V domains shown, arm on Cys8 as named in each row) VH: QVQLVESCGGVVQPGRSLRLDCKASGITFSNSGMHWVRQAPGKGLEWVAVIWYDGSKRYYADSVKGRFTISRDNSKNTLFLQMNSLRAEDTAVYYCATNDDYWGQGTLVTVSS VL: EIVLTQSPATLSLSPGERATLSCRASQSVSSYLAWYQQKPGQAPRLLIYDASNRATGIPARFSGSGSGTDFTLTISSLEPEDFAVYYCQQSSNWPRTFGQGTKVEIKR" unit_abbreviation=% value_observed=34.2
binder="anti-PD-1 antibody 2 HC Gly26Cys (antibody, human IgG4 S228P, kappa, V domains shown, arm on Cys26 as named in each row) VH: QVQLVESGGGVVQPGRSLRLDCKASCITFSNSGMHWVRQAPGKGLEWVAVIWYDGSKRYYADSVKGRFTISRDNSKNTLFLQMNSLRAEDTAVYYCATNDDYWGQGTLVTVSS VL: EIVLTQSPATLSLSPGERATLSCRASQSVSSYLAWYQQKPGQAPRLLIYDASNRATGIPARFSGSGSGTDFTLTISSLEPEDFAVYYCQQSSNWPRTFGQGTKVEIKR" unit_abbreviation=% value_observed=11.7

# context switch: different binder, same binding activity, % of wild type
Recorded binding activity, % of wild type of anti-PD-1 antibody 2 HC Ser71Cys (antibody, human IgG4 S228P, kappa, V domains shown, arm on Cys71 as named in each row) VH: QVQLVESGGGVVQPGRSLRLDCKASGITFSNSGMHWVRQAPGKGLEWVAVIWYDGSKRYYADSVKGRFTICRDNSKNTLFLQMNSLRAEDTAVYYCATNDDYWGQGTLVTVSS VL: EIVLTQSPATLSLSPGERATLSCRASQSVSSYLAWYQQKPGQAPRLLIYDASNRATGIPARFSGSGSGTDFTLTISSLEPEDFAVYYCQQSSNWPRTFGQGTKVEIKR , please.
22.9
